Recorded measurements of IC50, one per entry
# experimental.target: DCN1 (DCUND1) protein PONY domain (Homo sapiens (Human), UniProt Q96GG9)
# Sequence (Q96GG9 60-248): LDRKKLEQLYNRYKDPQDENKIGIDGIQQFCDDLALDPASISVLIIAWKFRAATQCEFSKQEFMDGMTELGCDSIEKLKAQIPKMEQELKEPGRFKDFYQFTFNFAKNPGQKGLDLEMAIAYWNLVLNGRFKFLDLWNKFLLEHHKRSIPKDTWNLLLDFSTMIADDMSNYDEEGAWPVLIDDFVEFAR
# assay.summary: TR-FRET assay, DCN1 binding with FAM-labeled probe
# test.context: TR FRET IC50 1 hr (nM), 1 hr after treatment with compound

Some solved cases for reference:
[
  {
    "compound": "CCN1C(=O)[C@H](NC(=O)c2cccc(C(F)(F)F)c2)[C@H](C2CC2)c2c(C(=O)N3CCC[C@H]3C#N)nn(C3CCOCC3)c21",
    "IC50": "1000 to 3000 nM"
  },
  {
    "compound": "CCN1C(=O)[C@@H](NC(=O)C23CC(C(F)F)(C2)C3)[C@@H](C2CC2)c2c(C(=O)N3[C@H](C#N)C[C@H]4C[C@H]43)nn(C3CCOCC3)c21",
    "IC50": "1000 to 3000 nM"
  }
]

Item `CCN1C(=O)[C@H](NC(=O)c2cccc(C(F)(F)F)c2)[C@H](c2ccc(F)cc2)c2c(C(=O)N(CC#N)C3CC3)nn(C3CCOCC3)c21` ; assay system DCN1 (DCUND1) protein PONY domain (Homo sapiens (Human), UniProt Q96GG9); IC50 reported as 1000 to 3000 nM

---

# experimental.target: DCN1 (DCUND1) protein PONY domain (Homo sapiens (Human))
# assay.summary: TR-FRET assay, DCN1 binding with FAM-labeled probe
# test.context: 24 hr after treatment with compound; read-out: TR FRET IC50 24 hr
Reported IC50 is given for each of the following compounds.

[
  {
    "compound": "CCN1C(=O)[C@@H](NC(=O)c2cccc(C(F)(F)F)c2)[C@@H](c2ccc(F)cc2)c2c(C(=O)N(CC#N)CCCN(C)C)nn(C3CCOCC3)c21",
    "IC50": "≤ 200 nM"
  },
  {
    "compound": "CCN1C(=O)[C@H](NC(=O)c2cccc(C(F)(F)F)c2)[C@H](c2ccc(F)cc2)c2c(C(=O)N3CCC[C@H]3C#N)nn(-c3cccc(OCCN4CCC5(CC4)COC5)c3)c21",
    "IC50": "1000 to 3000 nM"
  },
  {
    "compound": "CCN1C(=O)[C@H](NC(=O)c2cccc(C(F)(F)F)c2)[C@H](c2ccc(F)cc2)c2c(C(=O)N(CC#N)CCO)nn(-c3ccccc3)c21 (stereo in doubt)",
    "IC50": "1000 to 3000 nM"
  }
]

Please fill in: IC50 reported for CCN1C(=O)[C@@H](NC(=O)c2cccc(C(F)(F)F)c2)[C@@H](c2ccc(F)cc2)c2c(C(=O)N3CCC[C@H]3C#N)nn(C3CCOCC3)c21 [Compound I-350] = ≤ 200 nM

compound CCN1C(=O)[C@@H](NC(=O)c2cccc(C(F)(F)F)c2)[C@@H](c2ccc(F)cc2)c2c(C(=O)N3CCC[C@H]3C#N)nn(-c3ccccc3)c21 [Compound I-278] , IC50 observed: ≤ 200 nM

According to the records, this compound `C=C(CN1CC2CC(C1)O2)C(=O)NCc1nn(-c2ccccc2)c2c1[C@H](c1ccc(F)cc1)[C@H](NC(=O)c1cccc(C(F)(F)F)c1)C(=O)N2CC` displays IC50 of ≤ 200 nM

GET /value?item= `CCN1C(=O)[C@@H](NC(=O)c2cccc(C(F)(F)F)c2)[C@@H](C2CC2)c2c(C(=O)N(C)CC#N)nn(C3CCOCC3)c21` &field=IC50 returns ≤ 200 nM

Looking up `CCN1C(=O)[C@H](NC(=O)c2cccc(C(F)(F)F)c2)[C@H](c2ccc(F)cc2)c2c(C(=O)N3CCC[C@H]3C#N)nn(-c3cccc(OCCCN4CCOCC4)c3)c21` , I found its IC50 recorded as 1000 to 3000 nM

The measured IC50 associated with CCN1C(=O)[C@@H](NC(=O)c2cccc(C(F)(F)F)c2)[C@H](c2ccc(F)cc2)c2c(CNC(=O)C3=C(C(=O)OC)CC3)nn(-c3ccccc3)c21 (racemic) reads 200 to 1000 nM

Documented IC50 of `CCN1C(=O)[C@@H](NC(=O)c2cccc(C(F)(F)F)c2)[C@@H](C2CC2)c2c(C(=O)N3CC(F)(F)C[C@H]3C#N)nn(C3CCOCC3)c21` : ≤ 200 nM

Per the records, this compound ( `CCN1C(=O)[C@@H](NC(=O)c2ccn(C(C)C)n2)[C@@H](C2CC2)c2c(C(=O)N3[C@H](C#N)C[C@H]4C[C@H]43)nn(C3CCOCC3)c21` ) has IC50 equal to ≤ 200 nM

---

# experimental.target: DCN1 (DCUND1) protein PONY domain (Homo sapiens (Human))
# assay.summary: TR-FRET assay, DCN1 binding with FAM-labeled probe
# test.context: 24 hr after treatment with compound; read-out: TR FRET IC50 24 hr
# Description: A TR-FRET assay was performed to evaluate the ability of the compounds to bind the DCN-1 protein. The TR-FRET assay was designed following the Scott et al. protocol (Scott et al., Nat Chem Biol. 2017 August; 13(8): 850-857. Doi:10.1038/nchembio.2386). […] The TR-FRET ratio between Tb-DCN1 and the FAM-labeled probe was measured in a 384-well opti-plate (Perkin Elmer) using a plate reader (BMG) at 1, 5, and 24 hrs after treatment with compound (final DMSO concentration of 0.1%).
pIC50: −log10 of the molar value.
Consider the following molecules and their measured pIC50 readings.

For orientation, consider the following solved cases.
[
  {
    "molecule": "CCN1C(=O)[C@@H](NC(=O)c2cccc(C(F)(F)F)c2)[C@@H](C2CC2)c2c(C(=O)N(C)[C@@H](C#N)CCN(C)C3COC3)nn(C3CCOCC3)c21",
    "pIC50": "6.00 to 6.70"
  },
  {
    "molecule": "CCN1C(=O)[C@@H](NC(=O)c2cccc(C(F)(F)F)c2)[C@@H](c2ccc(F)cc2)c2c(C(=O)N3CCC[C@H]3C#N)nn(-c3cccc(OCCCN4CCN(C5COC5)CC4)c3)c21",
    "pIC50": "≥ 6.70"
  },
  {
    "molecule": "CCN1C(=O)[C@@H](NC(=O)c2cccc(C(F)(F)F)c2)[C@@H](C2CC2)c2c(C(=O)N3[C@H](C#N)C[C@H]4C[C@H]43)nn(C(C)(C)C)c21 (mixture of isomers)",
    "pIC50": "6.00 to 6.70"
  },
  {
    "molecule": "CCN1C(=O)[C@@H](NC(=O)c2cccc(C(F)(F)F)c2)[C@@H](c2ccc(F)cc2)c2c(C(=O)N3CCS(=O)(=O)CC3C#N)nn(-c3ccccc3)c21 (some centres unmarked)",
    "pIC50": "≥ 6.70"
  }
]

Attention now turns to another entry.
The measured pIC50 associated with CCN1C(=O)[C@@H](NC(=O)c2cccc(C(F)(F)F)c2)[C@@H](c2ccc(F)cc2)c2c(C(=O)N[C@H](C)C#N)nn(-c3ccccc3)c21 (mixture of isomers) reads 6.00 to 6.70

---

# experimental.target: DCN1 (DCUND1) protein PONY domain (Homo sapiens (Human))
# assay.summary: TR-FRET assay, DCN1 binding with FAM-labeled probe
# test.context: 24 hr after treatment with compound; read-out: TR FRET IC50 24 hr
Measured IC50 of individual entries

[
  {
    "compound": "CCN1C(=O)[C@H](NC(=O)c2cccc(C(F)(F)F)c2)[C@H](C)c2c(C(=O)N3[C@H](C#N)C[C@H]4C[C@H]43)nn(C3CCOCC3)c21",
    "experimental.target": "DCN1 (DCUND1) protein PONY domain (Homo sapiens (Human))",
    "IC50": "1000 to 3000 nM"
  },
  {
    "compound": "CCN1C(=O)[C@@H](NC(=O)c2nccc(C(F)(F)F)n2)[C@H](c2ccc(F)cc2)c2c(CNC(=O)/C=C/C(=O)N3CCCC3)nn(-c3ccccc3)c21",
    "experimental.target": "DCN1 (DCUND1) protein PONY domain (Homo sapiens (Human))",
    "IC50": "200 to 1000 nM"
  },
  {
    "compound": "CCN1C(=O)[C@@H](NC(=O)c2cccc(C(F)(F)F)c2)[C@@H](c2ccc(F)cc2)c2c(C(=O)N3CCC[C@H]3C#N)nn(-c3cccc(OCCN4CCOCC4)c3)c21",
    "experimental.target": "DCN1 (DCUND1) protein PONY domain (Homo sapiens (Human))",
    "IC50": "≤ 200 nM"
  }
]

The reported IC50 of the compound CCN1C(=O)[C@H](NC(=O)c2cccc(C(F)(F)F)c2)[C@H](c2ccc(F)cc2)c2c([C@@H](C)N(C)C#N)nn(-c3ccccc3)c21 (relative stereo) was 1000 to 3000 nM

The compound identified as CCN1C(=O)[C@@H](NC(=O)C(C)c2cccc(F)c2)[C@@H](C2CC2)c2c(C(=O)N3[C@H](C#N)C[C@H]4C[C@H]43)nn(C3CCOCC3)c21 (stereo partly shown) registered its IC50 at 1000 to 3000 nM

Note to self: IC50 recorded for `CCN1C(=O)[C@@H](NC(=O)c2cccc(C(F)(F)F)c2)[C@@H](c2ccc(F)cn2)c2c([C@@H](C)NC#N)nn(-c3ccccc3)c21` was ≤ 200 nM

Reported IC50 of CCN1C(=O)[C@@H](NC(=O)c2cccc(C(F)(F)F)c2)[C@@H](c2ccc(F)cc2)c2c(C(=O)N(C)C3(C#N)CCC3)nn(-c3ccccc3)c21 (racemic) : ≤ 200 nM

The compound `CCN1C(=O)[C@@H](NC(=O)c2cccc(C(F)(F)F)c2)[C@@H](c2ccc(F)cc2)c2c(C(=O)N(C)[C@H](C#N)CCN3CCN(C4COC4)CC3)nn(-c3ccccc3)c21` showed IC50 equal to ≤ 200 nM

// C=C(CN1C2COCC1C2)C(=O)NCc1nn(-c2ccccc2)c2c1[C@H](c1ccc(F)cc1)[C@H](NC(=O)c1cccc(C(F)(F)F)c1)C(=O)N2CC (mixture of isomers) : IC50 value = ≤ 200 nM

// `CCN1C(=O)[C@H](NC(=O)c2cccc(C(F)(F)F)c2)[C@H](c2ccc(F)cc2)c2c(C(=O)N3CC[C@H]3C#N)nn(-c3ccccc3)c21` : IC50 value = 1000 to 3000 nM

The measured values listed here are drawn from patent US20250163057A1.
